Catalogue of IC50, Human IL-21R-TF1 Neutralization Assay values
TARGET_OR_SYSTEM: human IL-21R expressed on cells (human, UniProt Q9HBE5 20-538)
Sequence (Q9HBE5 20-538 limits assumed): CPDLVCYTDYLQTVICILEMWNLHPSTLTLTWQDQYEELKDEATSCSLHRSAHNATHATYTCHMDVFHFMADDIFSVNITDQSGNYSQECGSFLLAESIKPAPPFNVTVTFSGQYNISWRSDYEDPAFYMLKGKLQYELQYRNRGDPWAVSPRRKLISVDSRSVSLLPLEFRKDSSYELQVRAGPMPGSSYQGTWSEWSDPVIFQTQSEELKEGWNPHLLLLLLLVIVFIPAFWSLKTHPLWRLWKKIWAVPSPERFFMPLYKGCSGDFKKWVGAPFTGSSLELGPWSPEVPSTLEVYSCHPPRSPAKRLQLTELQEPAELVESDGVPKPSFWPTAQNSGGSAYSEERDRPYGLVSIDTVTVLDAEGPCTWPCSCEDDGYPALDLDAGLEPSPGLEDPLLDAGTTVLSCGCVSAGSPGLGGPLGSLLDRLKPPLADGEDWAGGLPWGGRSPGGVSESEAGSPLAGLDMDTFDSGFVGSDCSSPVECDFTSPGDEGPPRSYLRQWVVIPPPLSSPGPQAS
EXPERIMENTAL_PROTOCOL: cell-based or functional assay
QUANTITY_KIND: IC50, Human IL-21R-TF1 Neutralization Assay

{"BINDER": "scFv L8 (scFv) scFv: QVQLQESGPGLVKTSETLSLTCAVSGYSISSGYYWGWIRQPPGKGLEWIGSISHTGNTYYNPPLKSRVTISVDTSKNQFSLKLSSVTAADTAVYYCARGGGISRPEYWGKGTLVTVSSGGGGSGGGGSGGGGSALSSELTQDPPVSVALGQTVTLTCQGDSLRTYYASWYQQKSGQAPILLLYGKHKRPSGIPDRFSGSTSGDTASLTITGAQAEDEADYYCTTRSTQGNPHVLFGGGTQLTVL", "VALUE_REPORTED": "51.3 nM"}
{"BINDER": "scFv L2 (scFv) scFv: QVQLQESGPGLVKTSETLSLTCAVSGYSISSGYYWGWIRQPPGKGLEWIGSISHTGNTYYNPPLKSRVTISVDTSKNQFSLKLSSVTAADTAVYYCARGGGISRPEYWGKGTLVTVSSGGGGSGGGGSGGGGSALSSELTQDPPVSVALGQTVTLTCQGDSLRTYYASWYQQKSGQAPILLLYGKHKRPSGIPDRFSGSTSGDTASLTITGAQAEDEADYYCVARSVVGNPHVLFGGGTQLTVL", "VALUE_REPORTED": "37.5 nM"}
{"BINDER": "scFv L9 (scFv) scFv: QVQLQESGPGLVKTSETLSLTCAVSGYSISSGYYWGWIRQPPGKGLEWIGSISHTGNTYYNPPLKSRVTISVDTSKNQFSLKLSSVTAADTAVYYCARGGGISRPEYWGKGTLVTVSSGGGGSGGGGSGGGGSALSSELTQDPPVSVALGQTVTLTCQGDSLRTYYASWYQQKSGQAPILLLYGKHKRPSGIPDRFSGSTSGDTASLTITGAQAEDEADYYCVARSNKGNPHVLFGGGTQLTVL", "VALUE_REPORTED": "27.7 nM"}
{"BINDER": "scFv L6 (scFv) scFv: QVQLQESGPGLVKTSETLSLTCAVSGYSISSGYYWGWIRQPPGKGLEWIGSISHTGNTYYNPPLKSRVTISVDTSKNQFSLKLSSVTAADTAVYYCARGGGISRPEYWGKGTLVTVSSGGGGSGGGGSGGGGSALSSELTQDPPVSVALGQTVTLTCQGDSLRTYYASWYQQKSGQAPILLLYGKHKRPSGIPDRFSGSTSGDTASLTITGAQAEDEADYYCMSRSIWGNPHVLFGGGTQLTVL", "VALUE_REPORTED": "~150 nM"}
{"BINDER": "scFv L10 (scFv) scFv: QVQLQESGPGLVKTSETLSLTCAVSGYSISSGYYWGWIRQPPGKGLEWIGSISHTGNTYYNPPLKSRVTISVDTSKNQFSLKLSSVTAADTAVYYCARGGGISRPEYWGKGTLVTVSSGGGGSGGGGSGGGGSALSSELTQDPPVSVALGQTVTLTCQGDSLRTYYASWYQQKSGQAPILLLYGKHKRPSGIPDRFSGSTSGDTASLTITGAQAEDEADYYCISRSIYGNPHVLFGGGTQLTVL", "VALUE_REPORTED": "7 nM"}
